test: Drug uptake in Sprague-Dawley rat brain at 10 mg/kg, po administered as single dose after 4 hrs; format: ADME, organism-based; details: read-out: Drug uptake
READOUT LABEL: concentration at 4 h (ng/g)
Give just the number in ng/g; leave the unit off.

INPUT: Fill blank: measured concentration at 4 h of the compound CCC(CC)n1cnc2c(-c3cnc(N)cn3)nc(N3CC4CCC(C3)O4)nc21 is ____.
OUTPUT: 170

###

experiment: Apparent permeability of the compound by PAMPA; format: ADME
READOUT LABEL: Papp (×10⁻⁶ cm/s)
Response body: numeric value in ×10⁻⁶ cm/s, unit text excluded.

INPUT: Given the entry Nc1cc(C(F)F)c(-c2nc(N3C4CCC3COC4)nc(N3C4CCC3COC4)n2)cn1 , report its measured Papp.
OUTPUT: 5.22
